Molecular target: BRAF V600E (Homo sapiens, UniProt P15056, V600E)
Construct: expressed in transfected cells
Sequence (P15056 whole entry V600E): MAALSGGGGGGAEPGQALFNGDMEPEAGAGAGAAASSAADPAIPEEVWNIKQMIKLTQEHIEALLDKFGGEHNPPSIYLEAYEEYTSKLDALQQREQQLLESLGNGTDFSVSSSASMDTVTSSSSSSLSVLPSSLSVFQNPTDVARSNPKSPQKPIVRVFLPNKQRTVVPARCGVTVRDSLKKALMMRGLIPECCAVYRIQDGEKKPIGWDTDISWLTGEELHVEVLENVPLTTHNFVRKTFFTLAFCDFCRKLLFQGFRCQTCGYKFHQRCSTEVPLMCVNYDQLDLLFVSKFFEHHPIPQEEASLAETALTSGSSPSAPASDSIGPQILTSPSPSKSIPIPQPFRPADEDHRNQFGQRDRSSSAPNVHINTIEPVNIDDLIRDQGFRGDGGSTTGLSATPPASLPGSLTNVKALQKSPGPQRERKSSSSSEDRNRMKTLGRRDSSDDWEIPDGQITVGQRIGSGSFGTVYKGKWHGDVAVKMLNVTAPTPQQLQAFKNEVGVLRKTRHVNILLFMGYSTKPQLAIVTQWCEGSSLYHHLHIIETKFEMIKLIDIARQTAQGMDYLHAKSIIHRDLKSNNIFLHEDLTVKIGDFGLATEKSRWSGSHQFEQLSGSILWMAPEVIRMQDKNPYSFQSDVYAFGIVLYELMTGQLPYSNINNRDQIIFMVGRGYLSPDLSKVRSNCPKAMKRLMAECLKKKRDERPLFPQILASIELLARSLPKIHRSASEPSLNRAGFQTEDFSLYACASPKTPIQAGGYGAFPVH
Assay: Cellular assay of target protein degradation, T-Rex 293 cells stably transfected with HA-BRAF_V600E (HA immunofluorescence, high content imaging)
Format: cell-based
Conditions: maximum degradation observed, T-Rex 293 HA-BRAF V600E
compounds and their reported Dmax

Example compounds with recorded Dmax:
| Compound | Dmax |
| --- | --- |
| O=C1CC[C@H](NC(=O)c2cc(C3CCN(CC4CCN(c5ccc(-c6cnc7[nH]cc(C(=O)c8c(F)ccc(NS(=O)(=O)N9CC[C@@H](F)C9)c8F)c7c6)cc5)CC4)CC3)ccc2F)C(=O)N1 | 35 to 70% |
| O=C1CC[C@@H](N2Cc3cc(N4C[C@H]5CN(CC6CCN(c7ccc(-c8cnc9[nH]cc(C(=O)c%10c(F)ccc(NS(=O)(=O)N%11CC[C@@H](F)C%11)c%10F)c9c8)cc7)CC6)C[C@H]5C4)ccc3C2=O)C(=O)N1 | < 35% |
| O=C1CCC(N2Cc3cc(O[C@H]4C[C@@]5(COCCN5CC5CCN(c6ccc(-c7cnc8[nH]cc(C(=O)c9c(F)ccc(NS(=O)(=O)N%10CC[C@@H](F)C%10)c9F)c8c7)cc6)CC5)C4)ccc3C2=O)C(=O)N1 (stereo partly drawn) | > 70% |
| O=C1CCC(N2Cc3cc(N4CCN(CC5CN(c6ccc(-c7cnc8[nH]cc(C(=O)c9c(F)ccc(NS(=O)(=O)N%10CC[C@@H](F)C%10)c9F)c8c7)cn6)C5)CC4)ccc3C2=O)C(=O)N1 (stereo partly drawn) | 35 to 70% |

Challenge: Name the recorded Dmax of the compound listed here: O=C1CCC(N2Cc3cc(N4CCC(C5CN(c6ccc(-c7cnc8[nH]cc(C(=O)c9c(F)ccc(NS(=O)(=O)N%10CC[C@@H](F)C%10)c9F)c8c7)cc6)C5)CC4)ccc3C2=O)C(=O)N1 (stereo partly drawn)
Response given: 35 to 70%

Challenge: Entry "CN(c1ncc(-c2cnc3[nH]cc(C(=O)c4c(F)ccc(NS(=O)(=O)N5CC[C@@H](F)C5)c4F)c3c2)cn1)C1CCN(CC2CCN(c3ccc4c(c3)CN([C@H]3CCC(=O)NC3=O)C4=O)CC2)CC1" needs its Dmax filled in; supply it.
Response given: 35 to 70%

Challenge: Identify the reported Dmax for the following entry. "O=C1CC[C@H](N2Cc3cc(OC[C@H](O)CN4CC5(C4)CN(c4ccc(-c6cnc7[nH]cc(C(=O)c8c(F)ccc(NS(=O)(=O)N9CC[C@@H](F)C9)c8F)c7c6)cc4)C5)ccc3C2=O)C(=O)N1"
Response given: 35 to 70%

Challenge: Specify measured Dmax for O=C1CCC(N2Cc3cc(N4CCC(CC5CCN(c6ccc(-c7cnc8[nH]cc(C(=O)c9c(F)ccc(NS(=O)(=O)N%10CC[C@@H](F)C%10)c9F)c8c7)cc6)CC5)CC4)ccc3C2=O)C(=O)N1 (stereo partly drawn) .
Response given: < 35%

// data source = patent US12180193B2
